assay: Tmax in Sprague-Dawley rat plasma at 2 mg/kg, po and 1 mg/kg, iv after 24 hrs wash out period by HPLC analysis; type: ADME, organism-based
measured-quantity: Tmax
Number first, unit second: that is the form wanted.

substance-smiles: CC(C)S(=O)(=O)NC[C@H]1CC[C@H](NC(=O)Cn2ccc3cc(Cl)ccc32)CC1
endpoint-result: 2 h

[ask] State the recorded Tmax for this entry: `CC(C)S(=O)(=O)NC[C@H]1CC[C@H](NC(=O)CN2CCc3cc(Cl)ccc32)CC1`
[reply] 0.8 h

###

assay: Plasma concentration in cPP-induced feeding Sprague-Dawley rat model at 10 mg/kg, po after 1 hr; type: ADME, organism-based; set-up: dose 10 mg/kg, route oral
Each entry below carries its reported concentration at 1 h.
I only need the number, in ng/mL, no unit after it.

substance-smiles: CC(C)S(=O)(=O)NC[C@H]1CC[C@H](NC(=O)CN2CCc3cc(Cl)ccc32)CC1
endpoint-result: 1700

Please find the next molecule below.
[ask] Would you mind telling me what concentration at 1 h value was observed for `CC(C)S(=O)(=O)NC[C@H]1CC[C@H](NC(=O)Cn2ccc3cc(Cl)ccc32)CC1` ?
[reply] 1260
